Test system: SK-MEL-5 (Melanoma)
Assay: NCI-60 screen (SRB, 48 h)
Details: Homo sapiens, SK-MEL-5, 48 h, read-out: TGI
assay-readout: IC (TGI) (µM)
Dear colleague, please return just the value in µM, with no unit written.

Ask: Sample CC(C)=C1CCC=C2CC[C@]3(C)[C@H](CC[C@@H]4[C@@]5(C)CCCNC(C)(C)[C@@H]5CC[C@]43C)[C@H]21 [Compound 9] — what was its IC (TGI)?
Reply: 3.08

Ask: Sample C=C(C)[C@@H]1CC[C@]2(COS(=O)(=O)c3ccc(C)cc3)CC[C@]3(C)[C@@H](CC[C@@H]4[C@@]5(C)CCCNC(C)(C)[C@@H]5CC[C@]43C)[C@@H]12 [Compound 12] — what was its IC (TGI)?
Reply: 3.08

Ask: Sample CC1(C)CC[C@]2(CO)CC[C@]3(C)C(=CC[C@@H]4[C@@]5(C)CCCNC(C)(C)[C@@H]5CC[C@]43C)[C@@H]2C1 [Compound 3, azepanoerythrodiol] — what was its IC (TGI)?
Reply: 3.14

Ask: Sample C=C(C)[C@@H]1CC[C@]2(C(=O)N[C@H](CO)Cc3ccccc3)CC[C@]3(C)[C@H](CC[C@@H]4[C@@]5(C)CCCNC(C)(C)[C@@H]5CC[C@]43C)[C@@H]12 [Compound 11] — what was its IC (TGI)?
Reply: 3.07

Ask: Sample Cc1ccc(S(=O)(=O)OC[C@@]2(C)CC[C@]3(C)CC[C@]4(C)C(=C3C2)C=C[C@@H]2[C@@]3(C)CCCNC(C)(C)[C@@H]3CC[C@]24C)cc1 [Compound 16] — what was its IC (TGI)?
Reply: 3.39

Ask: Sample CC1(C)NCCC[C@]2(C)[C@H]3C=CC4=C5C[C@@](C)(CO)CC[C@]5(C)CC[C@@]4(C)[C@]3(C)CC[C@@H]12 [Compound 6, azepano-glycyrrhetol-diene] — what was its IC (TGI)?
Reply: 4.94

Ask: Sample CC1(C)CC[C@]23CC[C@]4(C)[C@H](CC[C@@H]5[C@@]6(C)CCCNC(C)(C)[C@@H]6CC[C@]54C)[C@H]2[C@H]1OC3 [Compound 7, Azepanoallobetulin] — what was its IC (TGI)?
Reply: 3.06

Ask: Sample Cc1ccc(S(=O)(=O)OC[C@]23CCC(C)(C)C[C@H]2C2=CC[C@@H]4[C@@]5(C)CCCNC(C)(C)[C@@H]5CC[C@@]4(C)[C@]2(C)CC3)cc1 [Compound 15] — what was its IC (TGI)?
Reply: 3.68

Ask: Sample C=C(C)C1CCC2(CO)CCC3(C)C(CCC4C5(C)CCCNC(C)(C)C5CCC43C)C12 (centres unmarked) [Compound 1, Azepanobetulin] — what was its IC (TGI)?
Reply: 2.7

Ask: Sample C[C@H]1[C@H](C)CC[C@]2(CO)CC[C@]3(C)C(=CC[C@@H]4[C@@]5(C)CCCNC(C)(C)[C@@H]5CC[C@]43C)[C@H]12 [Compound 4, azepanouvaol] — what was its IC (TGI)?
Reply: 3.09

Ask: Sample C[C@H]1[C@H](C)CC[C@]2(C(=O)Nc3ccc4ncccc4c3)CC[C@]3(C)C(=CC[C@@H]4[C@@]5(C)CCCNC(C)(C)[C@@H]5CC[C@]43C)[C@H]12 [Compound 14] — what was its IC (TGI)?
Reply: 3.32
